- EXPERIMENTAL_SYSTEM: cloned human H3 receptors, stably expressed in SK-N-MC cells (Homo sapiens, UniProt Q9Y5N1)
- Sequence (Q9Y5N1 whole entry): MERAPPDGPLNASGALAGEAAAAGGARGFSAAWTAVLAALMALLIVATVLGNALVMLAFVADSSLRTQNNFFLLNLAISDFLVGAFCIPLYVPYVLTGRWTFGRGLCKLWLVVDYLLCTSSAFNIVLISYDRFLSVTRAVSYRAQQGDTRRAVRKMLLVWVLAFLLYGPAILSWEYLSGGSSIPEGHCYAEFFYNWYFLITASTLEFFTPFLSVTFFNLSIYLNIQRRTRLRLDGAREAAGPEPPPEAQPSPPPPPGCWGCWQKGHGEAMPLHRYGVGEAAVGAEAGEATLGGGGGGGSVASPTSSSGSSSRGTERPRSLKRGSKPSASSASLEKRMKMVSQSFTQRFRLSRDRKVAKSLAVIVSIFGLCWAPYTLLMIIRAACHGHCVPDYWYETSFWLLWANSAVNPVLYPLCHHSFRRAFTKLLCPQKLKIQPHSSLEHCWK
PROPERTY_LABEL: Ki (nM)

// known answers, use as guide
{"columns": ["STRUCTURE", "Ki / nM"],
 "data": [
  ["O=C(c1cncc(Oc2ccc(F)cc2)c1)N1CCCN(C2CCC2)CC1", 3.6],
  ["O=C(c1cc(Oc2ccccc2)ccn1)N1CCCN(C2CCC2)CC1", 11],
  ["O=C(c1cncc(Sc2ccccn2)c1)N1CCCN(C2CCC2)CC1", 6.6]
]}

P: O=C(c1cncc(Oc2cccc(F)c2)c1)N1CCCN(C2CCC2)CC1
Q: O=C(c1cncc(Sc2ccc(F)cc2)c1)N1CCCN(C2CCC2)CC1
R: CC(C)Oc1cncc(C(=O)N2CCCN(C3CCC3)CC2)c1
Request: Which order do these items take when sorted by rising Ki? List them. // ordering of labels required in reply
Response: P, Q, R

---

- EXPERIMENTAL_SYSTEM: cloned human H3 receptors, stably expressed in SK-N-MC cells (Homo sapiens, UniProt Q9Y5N1)
pKi: −log10 of the molar value.
PROPERTY_LABEL: pKi

1: O=C(c1cncc(Oc2cccc(Cl)c2)c1)N1CCCN(C2CCC2)CC1
2: O=C(c1cc(Oc2ccc(F)cc2)ccn1)N1CCCN(C2CCC2)CC1
Request: 1 or 2 : whose pKi is greater? When you have decided, please share the label of that item.
Response: 1
(1: 8.49, 2: 7.77)

P: CC(C)Sc1cncc(C(=O)N2CCCN(C3CCC3)CC2)c1
Q: O=C(c1cncc(Sc2ncccn2)c1)N1CCCN(C2CCC2)CC1
R: N#Cc1cccc(Oc2cncc(C(=O)N3CCCN(C4CCC4)CC3)c2)c1
Request: Which order do these items take when sorted by rising pKi? List them. // ordering of labels required in reply
Response: Q, P, R
(Q: 7.74, P: 8.52, R: 8.72)

---

- EXPERIMENTAL_SYSTEM: rat H3 receptor (Rattus norvegicus, UniProt Q9QYN8)
- Construct: expressed in transfected cells; host or cells: SK-N-MC cells (subline with reporter construct)
- Sequence (Q9QYN8 whole entry): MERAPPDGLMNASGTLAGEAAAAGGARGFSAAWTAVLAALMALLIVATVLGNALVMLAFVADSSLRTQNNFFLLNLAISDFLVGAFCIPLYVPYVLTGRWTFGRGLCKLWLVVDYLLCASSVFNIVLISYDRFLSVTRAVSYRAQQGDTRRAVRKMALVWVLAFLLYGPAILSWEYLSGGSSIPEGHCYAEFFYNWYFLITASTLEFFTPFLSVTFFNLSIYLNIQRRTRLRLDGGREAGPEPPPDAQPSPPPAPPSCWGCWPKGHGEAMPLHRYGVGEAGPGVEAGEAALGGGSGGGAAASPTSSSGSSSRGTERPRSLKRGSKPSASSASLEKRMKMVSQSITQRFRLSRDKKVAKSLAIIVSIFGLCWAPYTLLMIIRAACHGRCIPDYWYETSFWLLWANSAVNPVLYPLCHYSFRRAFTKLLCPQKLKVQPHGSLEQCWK
- RUN_DESCRIPTION: Cyclic AMP Accumulation (rat H3)
- Assay type: cell-based
- MEASUREMENT_CONTEXT: SK-N-MC cells expressing reporter construct and rat H3 receptor; Example 1 tested as TFA salt; read-out: Rat pA2 (converted)
- Experimental: Sublines of SK-N-MC cells were created that expressed a reporter construct and either the human or rat H3 receptor. The pA2 values were obtained as described by Barbier et al. (2004). Example 1 was tested as the corresponding TFA salt.
PROPERTY_LABEL: Kb (nM)

// known answers, use as guide
{"columns": ["STRUCTURE", "PROPERTY_LABEL", "UNIT", "ENDPOINT_VALUE"],
 "data": [
  ["O=C(c1cncc(Oc2ccc(F)cc2)c1)N1CCCN(C2CCC2)CC1", "Kb", "nM", 28.8],
  ["O=C(c1cncc(Sc2ccc(F)cc2)c1)N1CCCN(C2CCC2)CC1", "Kb", "nM", 43.7]
]}

a: O=C(c1cncc(Oc2cccc(F)c2)c1)N1CCCN(C2CCC2)CC1
b: N#Cc1cccc(Oc2cncc(C(=O)N3CCCN(C4CCC4)CC3)c2)c1
Request: Consider entries a and b . Which has the numerically lower Kb? When you have decided, please share the label of that item.
Response: b
(b: 6.17 nM, a: 20.4 nM)
